- Test target: human NAAA (Homo sapiens, UniProt Q02083)
- Sequence (Q02083 29-359): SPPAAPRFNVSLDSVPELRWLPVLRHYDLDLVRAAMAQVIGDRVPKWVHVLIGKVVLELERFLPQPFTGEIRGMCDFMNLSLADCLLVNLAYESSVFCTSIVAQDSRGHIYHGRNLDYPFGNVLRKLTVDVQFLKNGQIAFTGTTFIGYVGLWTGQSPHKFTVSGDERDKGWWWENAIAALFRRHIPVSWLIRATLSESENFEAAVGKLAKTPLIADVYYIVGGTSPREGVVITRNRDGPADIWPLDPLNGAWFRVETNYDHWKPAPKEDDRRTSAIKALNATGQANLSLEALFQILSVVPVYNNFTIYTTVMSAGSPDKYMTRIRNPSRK
Measured quantity: log10 of IC50 (log10 of the value in µM)
Annotation: log10 of IC50, µM basis.

Molecular string	Test value
O=C(N[C@H]1CNC1=O)OCc1ccc(-c2ccccc2F)cc1	-0.44
CCCCC/C=C\CCOC(=O)N[C@H]1CNC1=O	-1.12

Would you mind giving log10 of IC50 for every molecule in the list below?
1. C#CCCCCCCCCCOC(=O)N[C@H]1CNC1=O
2. O=C(N[C@H]1CNC1=O)OCc1ccc(-c2nc3ccccc3o2)cc1
3. Cc1ccc(COC(=O)N[C@H]2CNC2=O)cc1

Response given:
1. -2.22
2. -0.17
3. 0.09
